# test-summary: acute toxicity (LD50), intraperitoneal route in mice
# Assay type: in vivo
# reported-conditions: mouse, in vivo, ip, Table 2
recorded-endpoint: LD50

A selection of reference data follows.
CCCCCCCCCCC/C=C\CCCCC(=O)OCC=C(C)CCC=C(C)CCC=C(C)CCC=C(C)CCC=C(C)CCC=C(C)CCC=C(C)CCC=C(C)CCC=C(C)CCC=C(C)C [Decaprenyl petroselinate]: > 4000 mg/kg
COC(=O)CCC=C(C)CCC=C(C)CCC=C(C)CCC=C(C)CCC=C(C)CCC=C(C)CCC=C(C)CCC=C(C)CCC=C(C)C [Methyl solanesylacetate]: > 4000 mg/kg
CC(C)=CCCC(C)=CCCC(C)=CCCC(C)=CCCC(C)=CCCC(C)=CCCC(C)=CCCC(C)=CCCC(C)=CCCC(C)=CCCC(=O)OCCC(C)C [Isoamyl decaprenylacetate]: > 4000 mg/kg

Query: Recorded LD50 of CC(C)=CCCC(C)=CCCC(C)=CCCC(=O)Oc1c(C)c(C)c2c(c1C)CCC(C)(CCCC(C)CCCC(C)CCCC(C)C)O2 (stereo not drawn) [α-Tocopheryl farnesylacetate] , please.
Reply: > 4000 mg/kg

Query: Also CC(C)=CCCC(C)=CCCC(C)=CCCC(C)=CCCC(C)=CCCC(C)=CCCC(C)=CCCC(C)=CCCC(C)=CCCC(C)=CCCC(=O)OCC=C(C)CCCC(C)CCCC(C)CCCC(C)C (centres unmarked) [Phytyl decaprenylacetate] , if possible.
Reply: > 4000 mg/kg

Query: Also CC(C)=CCCC(C)=CCCC(C)=CCCC(C)=CCCC(C)=CCCC(C)=CCCC(C)=CCCC(C)=CCCC(C)=CCCC(=O)OCC=C(C)CCC=C(C)CCC=C(C)CCC=C(C)CCC=C(C)CCC=C(C)CCC=C(C)CCC=C(C)CCC=C(C)CCC=C(C)C [Decaprenyl solanesylacetate] , if possible.
Reply: > 5000 mg/kg

Query: Also CC(=O)OCC=C(C)CCC=C(C)CCC=C(C)CCC=C(C)CCC=C(C)CCC=C(C)CCC=C(C)CCC=C(C)CCC=C(C)CCC=C(C)C [Decaprenyl acetate] , if possible.
Reply: > 5000 mg/kg

Query: Also CC(=O)OC/C=C(\C)CCC[C@H](C)CCC[C@H](C)CCCC(C)C [Phytyl acetate] , if possible.
Reply: > 5000 mg/kg

Query: Also CCCCCCCC/C=C/CCCCCCCCCCCC(=O)OC/C=C(\C)CCC[C@H](C)CCC[C@H](C)CCCC(C)C [Phytyl brassidate] , if possible.
Reply: > 4000 mg/kg

Query: Also CCOC(=O)CCC=C(C)CCC=C(C)CCC=C(C)CCC=C(C)CCC=C(C)CCC=C(C)CCC=C(C)CCC=C(C)CCC=C(C)CCC=C(C)C [Ethyl decaprenylacetate] , if possible.
Reply: > 4000 mg/kg

Query: Also CCCCCCCCC1OC1CCCCCCCC(=O)OC/C=C(\C)CCC[C@H](C)CCC[C@H](C)CCCC(C)C (some centres unmarked) [Phytyl 9,10-epoxystearate] , if possible.
Reply: > 5000 mg/kg

Query: Also C=CC(C)(CCCC(C)CCCC(C)CCCC(C)C)OC(=O)CCCCCCC/C=C\CCCCCCCC (centres unmarked) [Isophytyl oleate] , if possible.
Reply: > 4000 mg/kg

Query: Also CCOC(=O)CCC=C(C)CCC=C(C)CCC=C(C)CCC=C(C)CCC=C(C)CCC=C(C)CCC=C(C)CCC=C(C)CCC=C(C)C [Ethyl solanesylacetate] , if possible.
Reply: > 4000 mg/kg

Query: Also CC(C)=CCCC(C)=CCCC(=O)OCC=C(C)CCC=C(C)CCC=C(C)CCC=C(C)CCC=C(C)CCC=C(C)CCC=C(C)CCC=C(C)CCC=C(C)C [Solanesyl geranylacetate] , if possible.
Reply: > 4000 mg/kg

Query: Also CC(C)=CCCC(C)=CCCC(C)=CCCC(C)=CCCC(C)=CCCC(C)=CCCC(C)=CCCC(C)=CCCC(C)=CCCC(=O)O , if possible.
Reply: > 4000 mg/kg

Query: Also C/C(=C\CCC(=O)O)CCC[C@H](C)CCC[C@H](C)CCCC(C)C , if possible.
Reply: > 5000 mg/kg

Query: Also CCCCCCCCCCC/C=C\CCCCC(=O)OC/C=C(\C)CCC[C@H](C)CCC[C@H](C)CCCC(C)C [Phytyl petroselinate] , if possible.
Reply: > 5000 mg/kg

Query: Also CCCCCCCC/C=C/CCCCCCCCCCCC(=O)OCC=C(C)CCC=C(C)CCC=C(C)CCC=C(C)CCC=C(C)CCC=C(C)CCC=C(C)CCC=C(C)CCC=C(C)CCC=C(C)C [Decaprenyl brassidate] , if possible.
Reply: > 4000 mg/kg
